# Species: Rattus norvegicus
# procedure-details: DrugMatrix - Regimen: Daily Repeat
# Assay type: toxicity, organism-based, Sprague-Dawley
# Design: regimen Daily Repeat, gender Male, age 6-8 weeks
# stated-conditions: in vivo, po, 0 mg/kg, 120 h, tissue Plasma, route oral GAVAGE, dose level Control, time 5 day, vehicle 100 % WATER
List of CREATINE PHOSPHOKINASE values.
Enter your answer as a number in u/L; do not include the unit.

Would you please look over these solved cases?
# molecule, assay-value
measured = [
    ("CC(C)NCC(O)c1ccc(NS(C)(=O)=O)cc1 (stereo not drawn) [SOTALOL]", 249.67),
    ("CC(C)(C)CC(C)(C)c1ccc(OCCOCC[N+](C)(C)Cc2ccccc2)cc1.[Cl-] [BENZETHONIUM CHLORIDE]", 533.33),
    ("CCN(CC)CCNC(=O)c1cc(S(C)(=O)=O)ccc1OC [TIAPRIDE]", 325.17),
    ("CN1[C@@H]2CC[C@H]1C[C@@H](OC(=O)C(CO)c1ccccc1)C2 (stereo partly drawn) [ATROPINE]", 358.67),
]

Sample O.O.O.O.O.O.[Cl-].[Cl-].[Sr+2] [STRONTIUM CHLORIDE HEXAHYDRATE] ; CREATINE PHOSPHOKINASE observed: 325.17

Entry Cc1ccc(NC(=O)c2ccc(CN3CCN(C)CC3)cc2)cc1Nc1nccc(-c2cccnc2)n1 [IMATINIB] — recorded CREATINE PHOSPHOKINASE = 325.17

The value of CREATINE PHOSPHOKINASE measured for the molecule CN(C)CCOC(c1ccccc1)c1ccccc1 [DIPHENHYDRAMINE] turned out to be 533.33

Notebook: Oc1cccc(O)c1O [PYROGALLOL] , CREATINE PHOSPHOKINASE read as 130.67

Form: molecule = Cn1c(=O)c2[nH]cnc2n(C)c1=O.O [THEOPHYLLINE] ; CREATINE PHOSPHOKINASE = 381.5

Field CREATINE PHOSPHOKINASE (entry CN(C)CC[C@@H](c1ccc(Cl)cc1)c1ccccn1 [DEXCHLORPHENIRAMINE] ) reads 268.33

Entry CS(=O)(=O)c1ccc([C@@H](O)[C@@H](CO)NC(=O)C(Cl)Cl)cc1 [THIAMPHENICOL] ; CREATINE PHOSPHOKINASE = 325.17

Record C[C@]12C=CC(=O)C=C1CC[C@@H]1[C@@H]2[C@@H](O)C[C@@]2(C)[C@H]1CC[C@]2(O)C(=O)CO [PREDNISOLONE] . Reported CREATINE PHOSPHOKINASE: 518.5

The recorded CREATINE PHOSPHOKINASE for entry NNc1nncc2ccccc12 [HYDRALAZINE] equals 533.33

---

# Species on record: Rattus norvegicus
# procedure-details: DrugMatrix - Regimen: Daily Repeat
# Type: toxicity, organism-based, Sprague-Dawley
# Design: regimen Daily Repeat, gender Male, age 6-8 weeks
# stated-conditions: in vivo, ip, 40 mg/kg, 120 h, tissue Blood, route intraperitoneal, dose level High, time 5 day, vehicle 100 % SALINE
measurement-name: ABSOLUTE SEGMENTED NEUTROPHIL (cells/µL)
Report the value in cells/µL with no unit label.

Data point: GENTAMICIN ; ABSOLUTE SEGMENTED NEUTROPHIL = 1450

---

Catalogue of EOSINOPHIL values
# Species on record: Rattus norvegicus
# procedure-details: DrugMatrix - Regimen: Daily Repeat
# Format: toxicity, organism-based, Sprague-Dawley
# Parameters: regimen Daily Repeat, gender Male, age 6-8 weeks
# stated-conditions: in vivo, po, 2000 mg/kg, 72 h, tissue Blood, route oral GAVAGE, dose level High, time 3 day, vehicle .5 % CMC
Lab book: enter the figure in %, no units written.

Solved cases (5 shown):
# compound, unit-spec, assay-value
rows = [
    ("COc1cc2nc(N3CCN(C(=O)c4ccco4)CC3)nc(N)c2cc1OC", "%", 1),
    ("CN/C(=N/CCSCc1nc[nH]c1C)NC#N", "%", 0.33),
    ("CC1(C)S[C@@H]2[C@H](NC(=O)[C@H](N)c3ccccc3)C(=O)N2[C@H]1C(=O)O", "%", 1.33),
    ("NC1CCN(c2nc3c(cc2F)c(=O)c(C(=O)O)cn3-c2ccc(F)cc2F)C1 (stereo unspecified)", "%", 0),
    ("O=C1Nc2ccc(Cl)cc2C(c2ccccc2Cl)=NC1O (stereo unspecified)", "%", 0.67),
]

We next turn to a different compound, shown below.
EOSINOPHIL reported for this compound CN(C/C=C/C#CC(C)(C)C)Cc1cccc2ccccc12 : 0

---

# Species on record: Rattus norvegicus
# procedure-details: DrugMatrix - Regimen: Daily Repeat
# Format: toxicity, organism-based, Sprague-Dawley
# Parameters: regimen Daily Repeat, gender Male, age 6-8 weeks
# stated-conditions: in vivo, po, 1500 mg/kg, 72 h, tissue Plasma, route oral GAVAGE, dose level High, time 3 day, vehicle .5 % CMC
measurement-name: POTASSIUM (MEQ/L)
A number alone suffices; assume MEQ/L.

# compound, POTASSIUM, MEQ/L
data = [
    ("CN(C)[C@@H]1C(O)=C(C(N)=O)C(=O)[C@@]2(O)C(O)=C3C(=O)c4c(O)ccc(Cl)c4[C@@](C)(O)[C@H]3C[C@@H]12 [CHLORTETRACYCLINE]", 5.95),
]

compound CC(C)Oc1ccc2c(=O)c(-c3ccccc3)coc2c1 [IPRIFLAVONE] , POTASSIUM observed: 6.1

---

# Species on record: Rattus norvegicus
# procedure-details: DrugMatrix - Regimen: Daily Repeat
# Type: toxicity, organism-based, Sprague-Dawley
# Parameters: regimen Daily Repeat, gender Male, age 6-8 weeks
# stated-conditions: in vivo, po, 0 mg/kg, 120 h, tissue Blood, route oral GAVAGE, dose level Control, time 5 day, […]
measurement-name: MEAN CORPUSCULAR HEMOGLOBIN CONCENTRATION (G/DL)
Express the result in G/DL but write the number alone.

The cases that follow already have their MEAN CORPUSCULAR HEMOGLOBIN CONCENTRATION on record.
# compound, assay-value
measured = [
    ("Clc1ccc(COC(Cn2ccnc2)c2ccc(Cl)cc2Cl)cc1 (centres undefined)", 40.67),
    ("COc1cc(N)c(Cl)cc1C(=O)NC1CCN(CCCOc2ccc(F)cc2)CC1OC (centres undefined) [CISAPRIDE]", 39.08),
    ("CC(C)(C)NC(=O)[C@H]1CC[C@H]2[C@@H]3CC[C@H]4NC(=O)C=C[C@]4(C)[C@H]3CC[C@]12C [FINASTERIDE]", 39.03),
]

Please look at the following compound next.
get_value(item= CO[C@H]1/C=C/O[C@@]2(C)Oc3c(C)c(O)c4c(O)c(c(/C=N/N5CCN(C6CCCC6)CC5)c(O)c4c3C2=O)NC(=O)/C(C)=C\C=C\[C@H](C)[C@H](O)[C@@H](C)[C@@H](O)[C@@H](C)[C@H](OC(C)=O)[C@@H]1C , readout=MEAN CORPUSCULAR HEMOGLOBIN CONCENTRATION) returns 37.35

---

# Organism: Rattus norvegicus
# procedure-details: DrugMatrix - Regimen: Daily Repeat
# Type: toxicity, organism-based, Sprague-Dawley
# Design: regimen Daily Repeat, gender Male, age 6-8 weeks
# stated-conditions: in vivo, po, 0 mg/kg, 120 h, tissue Plasma, route oral GAVAGE, dose level Control, time 5 day, vehicle .5 % CMC
The following compounds are shown together with reported LIPASE values.
Give the number; u/L is assumed, so skip it.

Per the record, COc1cc2nc(N3CCN(C(=O)c4ccco4)CC3)nc(N)c2cc1OC has LIPASE of 9

// LIPASE lookup, compound = CN/C(=N/CCSCc1nc[nH]c1C)NC#N , result: 9.5

Measured LIPASE, C[C@H]1O[C@@H](n2cc(F)c(=O)[nH]c2=O)[C@H](O)[C@@H]1O : 9.5

Sure, the documented LIPASE for COC1=C(OC)C(=O)C(CCCCCCCCCCO)=C(C)C1=O is 9.5

So, O=C1CN=C(c2ccccc2Cl)c2cc([N+](=O)[O-])ccc2N1 ? Its LIPASE was 9.5

---

# Organism: Rattus norvegicus
# procedure-details: DrugMatrix - Regimen: Daily Repeat
# Type: toxicity, organism-based, Sprague-Dawley
# Set-up: regimen Daily Repeat, gender Male, age 6-8 weeks
# stated-conditions: in vivo, po, 0 mg/kg, 120 h, tissue Plasma, route oral GAVAGE, dose level Control, time 5 day, vehicle 100 % WATER
measurement-name: URIC ACID (mg/dL)
Report the value in mg/dL with no unit label.

Past entries and their recorded results:
# molecule, URIC ACID / mg/dL
data = [
    ("NNc1nncc2ccccc12 [HYDRALAZINE]", 1.42),
    ("CN(C)CC[C@@H](c1ccc(Cl)cc1)c1ccccn1", 1.7),
]

Now consider the entry below.
The measured URIC ACID associated with CS(=O)(=O)c1ccc([C@@H](O)[C@@H](CO)NC(=O)C(Cl)Cl)cc1 reads 1.78
